TESTED_SYSTEM: CYP3A4 (Homo sapiens)
Sequence (P08684 whole entry): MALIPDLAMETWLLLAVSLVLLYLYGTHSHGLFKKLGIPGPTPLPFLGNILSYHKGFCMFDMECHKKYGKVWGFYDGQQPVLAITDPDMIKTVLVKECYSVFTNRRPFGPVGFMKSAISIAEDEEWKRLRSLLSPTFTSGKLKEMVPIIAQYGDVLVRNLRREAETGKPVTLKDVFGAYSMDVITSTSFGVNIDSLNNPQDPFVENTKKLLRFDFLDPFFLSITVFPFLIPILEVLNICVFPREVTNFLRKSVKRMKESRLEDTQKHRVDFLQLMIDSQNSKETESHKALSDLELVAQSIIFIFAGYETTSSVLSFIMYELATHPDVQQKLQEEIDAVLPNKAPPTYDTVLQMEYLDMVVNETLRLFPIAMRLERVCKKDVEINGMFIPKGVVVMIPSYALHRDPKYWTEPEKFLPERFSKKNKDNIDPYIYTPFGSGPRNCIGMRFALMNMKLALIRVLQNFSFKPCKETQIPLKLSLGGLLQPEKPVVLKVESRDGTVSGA
ASSAY_TEXT: Induction of CYP3A4 in human hepatocytes assessed as fold induction at 1 uM using testosterone as substrate preincubated with replacement of fresh medium containing compound every 24 hrs for 72 hrs followed by substrate addition and measured after 1 hr by LC-MS/MS analysis relative to control
Format: ADME, cell-based, Hepatocyte
TEST_PARAMETERS: probe testosterone, time 73 hrs, read-out: FC
Entries and their fold induction at 1 h, 1 µM
Note: the reply should be a number with no unit written.

{"SMILES_STRUCTURE": "CCc1cc(C(=O)NC(C)(C)C)cc(C#Cc2ccc3c4c(oc3c2)C(C)(C)c2cc(NS(C)(=O)=O)ccc2C4=O)n1", "READING": 2.8}
{"SMILES_STRUCTURE": "CC1(C)c2cc(OCCN3CCOCC3)ccc2C(=O)c2c1oc1cc(C#Cc3cc(OCCC4CC4)ccn3)ccc21", "READING": 6.4}
{"SMILES_STRUCTURE": "CC(C)(C)NC(=O)c1cc(C#N)nc(C#Cc2ccc3c4c(oc3c2)C(C)(C)c2cc(NS(C)(=O)=O)ccc2C4=O)c1", "READING": 11}
{"SMILES_STRUCTURE": "CC1(COc2ccnc(C#Cc3ccc4c5c(oc4c3)C(C)(C)c3cc(OCCN4CCOCC4)ccc3C5=O)c2)CC1", "READING": 6.1}
{"SMILES_STRUCTURE": "CC(C)(C)NC(=O)c1ccnc(C#Cc2ccc3c4c(oc3c2)C(C)(C)c2cc(NS(C)(=O)=O)ccc2C4=O)c1", "READING": 4.7}

# fold induction at 1 h, 1 µM (molecule: CC1(C)c2cc(NS(C)(=O)=O)ccc2C(=O)c2c1oc1cc(C#Cc3cc(OCC(F)(F)F)ccn3)ccc21 ) is 3.4

# fold induction at 1 h, 1 µM (molecule: Cc1c(C(=O)NC(C)(C)C)ccnc1C#Cc1ccc2c3c(oc2c1)C(C)(C)c1cc(NS(C)(=O)=O)ccc1C3=O ) is 4.1

# fold induction at 1 h, 1 µM (molecule: CC1(C)c2cc(OCCN3CC4(COC4)C3)ccc2C(=O)c2c1oc1cc(C#Cc3cc(OCC4CC4)ccn3)ccc21 ) is 1.4
